# Test system: OVCAR-8
# method_summary: NCI tumour cell line growth inhibition, 48 h
The source made the active and inactive calls. Rule as the data show it: active = GI50 up to about 1.1 µM and inactive = higher. Residues, ends and D or L forms follow the SMILES beside them. *: point of attachment. OBn = c1ccc(CO*)cc1
property_name: GI50

{"columns": ["compound", "property_name", "experimental_result"],
 "data": [
  ["CCOC1=C/C(=N\\Nc2ccc([N+](=O)[O-])cc2)CCC1", "GI50", "16.4 µM (inactive)"],
  ["O=C(NCCCc1cn[nH]c(=O)n1)c1cccc2nc3ccccc3nc12", "GI50", "61.9 µM (inactive)"],
  ["O=C(CN1CCCC1)Nc1ccc2c(c1)C1Oc3ccccc3CC1CO2 (stereo not drawn)", "GI50", "97.5 µM (inactive)"],
  ["NC(=O)C(Nc1c(Cl)cccc1Cl)c1cc2cc(Br)ccc2nc1Cl (stereo not drawn)", "GI50", "80.7 µM (inactive)"],
  ["COc1ccc(-c2ccc(CC(=O)O)cc2)cc1OC", "GI50", "> 100 µM (inactive)"],
  ["O=C(O)c1ccc(C(c2c(O)oc3ccccc3c2=O)c2c(O)oc3ccccc3c2=O)cc1", "GI50", "> 100 µM (inactive)"],
  ["O=[N+]([O-])C(=C(\\Cl)NCCO)/C(Cl)=C(/Cl)Br", "GI50", "1.87 µM (inactive)"],
  ["N#CC1=C(N)n2c(s/c(=C\\c3ccc(Cl)cc3)c2=O)=C(c2nc3ccccc3[nH]2)C1c1ccc(Cl)cc1 (stereo not drawn)", "GI50", "1.81 µM (inactive)"],
  ["CCc1cccc(C(C)CC)c1NC(=O)C(=O)Cc1nc2ccccc2o1 (stereo not drawn)", "GI50", "> 50 µM (inactive)"],
  ["CCCCCCNC(=S)N/N=C(\\C)c1ccccn1", "GI50", "0.0912 µM (active)"],
  ["Cc1ccc(C)c2c1n1c(=O)n(C)c(=O)n21", "GI50", "> 100 µM (inactive)"],
  ["CC1=CC(=O)c2ccccc2C1=O [MENADIONE]", "GI50", "10.1 µM (inactive)"],
  ["Cc1ccc(Oc2ccc(C)cc2N)cc1", "GI50", "> 100 µM (inactive)"],
  ["C[C@H](CCC(=O)O)[C@H]1CC[C@H]2[C@@H]3[C@H](O)C[C@@H]4C[C@H](O)CC[C@]4(C)[C@H]3C[C@H](O)[C@]12C", "GI50", "> 100 µM (inactive)"],
  ["NC(CCC(=O)OCc1ccccc1)C(=O)NC(CCC(=O)OCc1ccccc1)C(=O)O (stereo not drawn) (H-Glu(OBn)-Glu(OBn)-OH; configuration not given here)", "GI50", "> 100 µM (inactive)"],
  ["O=C(Nc1nc2ncn(CCOC(=O)c3ccccc3)c2c(=S)[nH]1)c1ccccc1", "GI50", "45.6 µM (inactive)"],
  ["C1=CN2C[n+]3ccc4ccccc4c3N=C2c2ccccc21", "GI50", "4.59 µM (inactive)"],
  ["Cc1cc(C(O)CCCc2ccccc2)cc(C)c1O (stereo not drawn)", "GI50", "47.5 µM (inactive)"],
  ["O=C(CC(c1ccccc1)c1c(O)c2ccccc2oc1=O)c1ccccc1 (stereo not drawn)", "GI50", "> 100 µM (inactive)"],
  ["COc1ccc2oc3c4c2c1CCC4CCC3=O (stereo not drawn)", "GI50", "59.4 µM (inactive)"],
  ["O=C1/C(=C/c2ccc(Cl)cc2)N=C(c2ccccc2)N1/N=C/c1ccccc1O", "GI50", "5.51 µM (inactive)"],
  ["CCN1CCN(c2nc3ccccc3nc2C(=O)c2ccc(OC)c(OC)c2)CC1", "GI50", "12.6 µM (inactive)"],
  ["COc1ccc2[nH]cc(/C=C(/C)c3ccncc3)c2c1", "GI50", "16 µM (inactive)"],
  ["Cc1cc(=O)n2nc(CN3CCCCC3)sc2n1", "GI50", "> 100 µM (inactive)"],
  ["Cc1ccc(SCC(CF)OC(C)n2cnc3c(O)nc(N)nc32)cc1 (stereo not drawn)", "GI50", "> 100 µM (inactive)"],
  ["CCCCCCCC/C=C/CCCCCCCC(=O)N(O)C1CC(n2cc(C)c(=O)[nH]c2=O)OC1CO (stereo not drawn)", "GI50", "11.4 µM (inactive)"],
  ["CC(=O)N1C=Cc2c(c(C)c3c([nH]c4ccccc43)c2C)C1", "GI50", "6.03 µM (inactive)"],
  ["O=c1[nH]nc(Cc2ccccc2)n1/N=C/c1ccc([N+](=O)[O-])cc1", "GI50", "> 100 µM (inactive)"],
  ["CC1(C)CC2(C)CC1CC2O (stereo not drawn)", "GI50", "> 100 µM (inactive)"],
  ["CCCCC#CS(=O)(=O)C(F)(F)F", "GI50", "97.1 µM (inactive)"],
  ["COc1ccc(/C=C2\\N=C(N3CCCCC3)NC2=O)cc1", "GI50", "> 100 µM (inactive)"],
  ["c1ccc([P+](c2ccccc2)(c2ccccc2)C2Sc3ccccc3S2)cc1", "GI50", "15.1 µM (inactive)"],
  ["Cc1cc(Cl)ccc1NC(=O)C(=O)Cc1occc(=O)c1O", "GI50", "> 100 µM (inactive)"],
  ["CCC1c2[nH]c3ccccc3c2C[C@H]2C(=O)NC(CCCCNC(=O)OC(C)(C)C)C(=O)N12 (stereo partly drawn)", "GI50", "33 µM (inactive)"],
  ["CC1(C)N=c2c(ncn2CCO)=C(C(N)=O)N1", "GI50", "> 100 µM (inactive)"],
  ["CO[C@@]12C[C@@H](C)C3=CCC(C)=C3CC1=C(C)C(=O)O2", "GI50", "> 100 µM (inactive)"],
  ["CC1(c2ccc(F)cc2)C2C(=O)NC(=O)C1C(=O)NC2=O (stereo not drawn)", "GI50", "> 100 µM (inactive)"],
  ["CCCCCCSC[C@H](OC(C)=O)[C@@H](OC(C)=O)[C@@H](OC(C)=O)[C@@H](COC(C)=O)OC(C)=O", "GI50", "> 100 µM (inactive)"],
  ["CC1CC(C)C(O)C(C2CC(CC(=O)NC3CCCCC3)CC(=O)O2)C1 (stereo not drawn)", "GI50", "> 100 µM (inactive)"],
  ["CC(=O)OC12/C(=N/O)CCCCCC1c1ccccc12 (stereo not drawn)", "GI50", "> 100 µM (inactive)"],
  ["CN(C)c1ccc(/C=C/C(=O)C(C)(C)C)cc1Br", "GI50", "21.8 µM (inactive)"],
  ["CC(=O)C1C(=O)C(=O)N(c2ccc(Cl)c(Cl)c2)C1=O (stereo not drawn)", "GI50", "> 100 µM (inactive)"],
  ["COC(=O)c1cc(C#N)[nH]c1-c1cc(Br)cs1", "GI50", "14.7 µM (inactive)"]
]}

---

# Tested on: UO-31
# method_summary: NCI tumour cell line growth inhibition, 48 h
Active and inactive are the calls of the source. Cut-off read from the data, not from the text of the source: active = GI50 up to about 1.1 µM and inactive = higher.

{"columns": ["molecule", "GI50"],
 "data": [
  ["c1ccc([P+](c2ccccc2)(c2ccccc2)C2Sc3ccccc3S2)cc1", "16.1 µM (inactive)"],
  ["COc1cc(C2c3cc4c(cc3OC(Nc3ccccc3)C2C)OCO4)cc(OC)c1O (stereo unspecified)", "8.38 µM (inactive)"],
  ["O=C1Nc2ccccc2SC1=C(C(=O)c1ccccc1)C(=O)c1ccccc1", "53.3 µM (inactive)"],
  ["CCCCCCCC(=O)OC[C@@H](C[As](=O)(O)O)OC(=O)CCCCCCC", "2.59 µM (inactive)"],
  ["O=C(O)/C=C/C(=O)Nc1nc[nH]n1", "> 100 µM (inactive)"],
  ["COc1ccc(Nc2[nH]c(C(C)=O)c(N)c2C(=S)Nc2ccccc2)cc1", "51.6 µM (inactive)"],
  ["O=C(O)CSc1ccc2nc3ccccc3c(O)c2c1", "> 100 µM (inactive)"],
  ["Nc1ccc(C2=N/C(=C\\c3cccc(N)c3)C(=O)O2)cc1", "> 100 µM (inactive)"],
  ["O=C(Cc1ccccc1)NCCc1ccc(O)c(O)c1", "41.2 µM (inactive)"],
  ["O=C(O)CNS(=O)(=O)c1ccc(NCc2ccccc2)cc1", "> 100 µM (inactive)"],
  ["Cc1ccc(C(=O)N(C(C)C)C(C)C)cc1/N=N/N(C)C", "> 61.4 µM (inactive)"]
]}

---

# Test system: OVCAR-4
# method_summary: NCI tumour cell line growth inhibition, 48 h
Active and inactive are the calls of the source. Rule as the data show it: active = GI50 up to about 1.1 µM and inactive = higher.
Labels: true (active), false (inactive)

{"columns": ["molecule", "tested_on", "class_name"],
 "data": [
  ["COc1ccc2nc(-c3ccc(OCc4ccccc4)cc3)ccc2c1", "OVCAR-4", "false"],
  ["CC1=NOC(=O)/C1=C/c1ccc2c(c1)OCO2", "OVCAR-4", "false"],
  ["CCCSCC(P(=O)(O)O)P(=O)(O)O.NC1CCCCC1", "OVCAR-4", "false"],
  ["CCC1(O)C[C@H]2CN(CCCc3c([nH]c4ccccc34)[C@@](C(=O)OC)(c3cc4c(cc3OC)N(C)C3[C@](O)(C(=O)OC)[C@H](OC(C)=O)[C@]5(CC)C=CCN6CC[C@]43[C@H]65)C2)C1 (stereo partly drawn)", "OVCAR-4", "true"],
  ["O=C1C(S(=O)(=O)c2ccccc2)=C(CS(=O)(=O)c2ccccc2)[C@@H](OCc2ccccc2)[C@@H]1OCc1ccccc1", "OVCAR-4", "false"],
  ["C/C=C/OC1C(C2COC(C)(C)O2)OC2OC(C)(C)OC21 (stereo not drawn)", "OVCAR-4", "false"],
  ["COc1ccc(NC(=O)C(=O)C(CC2C(=O)NC(=S)NC2=O)C(=O)c2ccc3ccccc3c2)c([N+](=O)[O-])c1 (stereo not drawn)", "OVCAR-4", "false"],
  ["CC(=C(C(N)=O)C(N)=O)C1C=C(c2cccs2)CC(c2ccc(Cl)cc2)=C1O (stereo not drawn)", "OVCAR-4", "false"]
]}

The measured values listed here are drawn from ChEMBL document CHEMBL1201862.
